Origin of values: patent US12721820B2

# assay: Rat 5-day infusion pharmacokinetic study
# condition-label: female, plasma, intravenous
Residues, ends and D or L forms follow the SMILES beside them. *: point of attachment. Myristoyl = CCCCCCCCCCCCCC(=O)*
measured-endpoint: AUC(0-t) (µg·h/mL)
Numeric only. Scale: µg·h/mL

Exercise: Check the records and state AUC(0-t) for CCCCCCCCCCCCCC(=O)N[C@@H](Cc1ccccc1)C(=O)N[C@@H](CCC(=O)O)C(=O)N[C@@H](CCC(=O)O)C(=O)N[C@@H](CCC(=O)O)C(=O)N[C@@H](CCCNC(=N)N)C(=O)N[C@@H](CC(C)C)C(=O)O [M3mP6, Myr-FEEERL (SEQ ID NO: 8)] (Myristoyl-FEEERL-OH; C-terminus assumed)
Key: 17600
